Test system: Aspergillus niger
Protocol text: Antifungal activity against Aspergillus niger MTCC 8189 after 7 days by tube dilution method
Assay type: functional
# Lookup of reported -logMIC keyed by entry
In your answer, state the number alone without any accompanying words.

Check out these entries, answers already filled in.
> print(dat)
                                   compound  readout.label  recorded.result
1  Cc1c(/N=C/c2ccccc2Cl)c(=O)n(-c2ccccc2)n1C        -logMIC             1.42
2   Cc1c(/N=C/c2ccccc2)c(=O)n(-c2ccccc2)n1C        -logMIC             1.37
3  COc1cccc(/C=N/c2c(C)n(C)n(-c3ccccc3)c2=O)c1O        -logMIC             1.13
4  COc1ccccc1/C=N/c1c(C)n(C)n(-c2ccccc2)c1=O        -logMIC             1.41
5  Cc1c(/N=C/c2ccc(Cl)cc2)c(=O)n(-c2ccccc2)n1C        -logMIC             1.42

Prompt: Find -logMIC (Aspergillus niger) for the entry `Cc1c(/N=C/c2ccc(O)cc2)c(=O)n(-c2ccccc2)n1C`
Completion: 1.69

Prompt: And then `Cc1c(/N=C/c2cccc(Cl)c2)c(=O)n(-c2ccccc2)n1C` , what is it?
Completion: 1.42

Prompt: And then `COc1ccc(/C=N/c2c(C)n(C)n(-c3ccccc3)c2=O)cc1` , what is it?
Completion: 1.41

Prompt: And then `Cc1c(/N=C/c2cccc([N+](=O)[O-])c2)c(=O)n(-c2ccccc2)n1C` , what is it?
Completion: 1.43

Prompt: And then OC(Cn1cncn1)(Cn1cncn1)c1ccc(F)cc1F [FLUCONAZOLE] , what is it?
Completion: 2.64

---

Tested on: Staphylococcus aureus
Protocol text: Bactericidal activity against Staphylococcus aureus MTCC 2901
Assay type: functional
# Lookup of reported MBC keyed by entry

Prompt: So what does the record say about MBC for `COc1ccc(/C=N/c2c(C)n(C)n(-c3ccccc3)c2=O)cc1` ?
Completion: >0.16 uM/ml

Prompt: And then `Cc1c(/N=C/c2ccc(Cl)cc2)c(=O)n(-c2ccccc2)n1C` , what is it?
Completion: >0.15 uM/ml

Prompt: And then `Cc1c(/N=C/c2cccc([N+](=O)[O-])c2)c(=O)n(-c2ccccc2)n1C` , what is it?
Completion: >0.15 uM/ml

Prompt: And then `Cc1c(/N=C/c2ccccc2)c(=O)n(-c2ccccc2)n1C` , what is it?
Completion: >0.17 uM/ml

Prompt: And then `Cc1c(/N=C/c2ccc(O)cc2)c(=O)n(-c2ccccc2)n1C` , what is it?
Completion: >0.16 uM/ml

---

Test system: Staphylococcus aureus
Protocol text: Bactericidal activity against Staphylococcus aureus MTCC 2901
Type: functional
Readout label: MBC

> print(dat)
                                   compound  readout.label  recorded.result
1  CCn1cc(C(=O)O)c(=O)c2cc(F)c(N3CCNCC3)cc21            MBC      0.019 uM/ml
2  Cc1c(/N=C/c2ccccc2Cl)c(=O)n(-c2ccccc2)n1C            MBC      >0.15 uM/ml

Here is the next item to consider.
Prompt: So what does the record say about MBC for `Cc1c(/N=C/c2cccc(Cl)c2)c(=O)n(-c2ccccc2)n1C` ?
Completion: >0.15 uM/ml
